Molecular target: human GLP1-R (Homo sapiens)
Sequence (P43220 24-463): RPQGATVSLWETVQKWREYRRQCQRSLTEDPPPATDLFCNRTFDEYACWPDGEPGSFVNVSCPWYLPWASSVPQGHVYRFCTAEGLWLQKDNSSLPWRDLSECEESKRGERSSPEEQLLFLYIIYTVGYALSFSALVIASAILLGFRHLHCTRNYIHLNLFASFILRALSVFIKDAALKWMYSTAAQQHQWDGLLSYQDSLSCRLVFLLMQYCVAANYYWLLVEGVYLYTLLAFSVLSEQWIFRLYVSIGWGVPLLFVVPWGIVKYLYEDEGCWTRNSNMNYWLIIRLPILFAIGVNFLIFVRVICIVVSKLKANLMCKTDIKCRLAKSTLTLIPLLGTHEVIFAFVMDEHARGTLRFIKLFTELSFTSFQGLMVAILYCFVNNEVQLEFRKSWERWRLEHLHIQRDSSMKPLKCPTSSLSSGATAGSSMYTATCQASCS
Test: GLP1-R internalization assay in HEK293 cells
Type: cell-based
Settings: normalized to maximum concentration of GLP-1 (100%)
Starred links: 1 amine or outer side, 2 acyl side, 3 side chain; linkers in the order of their positions; H or OH if unused. Non-standard residues stand in square brackets, D forms with d. Groups on a side chain read outwards from the residue. No end group written: not given here. *: point of attachment. C20 diacid = O=C(O)CCCCCCCCCCCCCCCCCCC(=O)*; C18 diacid = O=C(O)CCCCCCCCCCCCCCCCC(=O)*; αMePhe(2-F) = C[C@](N)(Cc1ccccc1F)C(=O)O; γGlu = O=C(O)[C@H](CCC(=O)[*:2])N[*:1]; αMe4Pal = C[C@](N)(Cc1ccncc1)C(=O)O; αMeY = C[C@](N)(Cc1ccc(O)cc1)C(=O)O; 4Pal = N[C@@H](Cc1ccncc1)C(=O)O; αMeL = CC(C)C[C@](C)(N)C(=O)O; αMeS = C[C@](N)(CO)C(=O)O; Orn = NCCC[C@H](N)C(=O)O; Dap = NC[C@H](N)C(=O)O; AEEA = NCCOCCOCC(=O)O; Aib = CC(C)(N)C(=O)O
quantity name: Internalization % TOP (%)
Record the value in %, omitting the unit from your answer.

Check out these entries, answers already filled in.
{"columns": ["substance", "quantitative result"],
 "data": [
  ["H-Y[Aib]QGTFTSDFS[Orn][αMeL]LDKK([AEEA-γGlu-C18 diacid])AQ[Aib]AFIEWLLEGGPSSGAPPPTGS-NH2 [Example 250]", 45],
  ["H-Y[Aib]QGTFTSDFSK[αMeL]LDKK([AEEA-γGlu-C20 diacid])AQ[Aib]AFIEYLLE[Aib]GPSSGAPPPSSG-NH2 [Example 44]", 65],
  ["H-Y[Aib]QGTFTSDFS[Orn][αMeL]LDKK([AEEA-γGlu-C18 diacid])AQ[Aib]AFIEYLLE[Aib]GPSSGAPPPSGT-NH2 [Example 200]", 39.2],
  ["Y[Aib]QGTFTSDFSK[αMeL]LDKK([AEEA-γGlu-C18 diacid])AQ[Aib]QFIEYLLAGGPSSGEPPPSEG-NH2 [Example 26]", 75.6],
  ["H-Y[Aib]QGTFTSDFS[Dap][αMeL]LDKK([AEEA-γGlu-C18 diacid])AQ[Aib]AFIEYLLE[Aib]GPSSGAPPPSGS-NH2 [Example 134]", 22.3]
]}

Specify Internalization % TOP for H-Y[Aib]QGTFTSD[4Pal]SK[αMeL]LDKK([AEEA-γGlu-C18 diacid])AQ[Aib]AFIEYLIE[Aib]GESSGEPPPSGS-NH2 [Example 282] and stop.
71.9

Please report Internalization % TOP for the following substance: H-Y[Aib]QGT[αMePhe(2-F)]TSD[4Pal][αMeS]I[αMeL]LD[Orn]K([AEEA-γGlu-C18 diacid])AQ[αMe4Pal]EFI[dE][αMeY]LVEGGPSSGAPPPSGS-NH2 [Example 694]
97.3

Where do these numbers come from? They come from patent US20240270821A1.
